System: HOP-92
experiment: NCI one-dose SRB growth assay
Format: cell-based
applied conditions: Homo sapiens; HOP-92 (Non-Small Cell Lung Cancer), 10^-5 M, 48 h; read-out: % Growth Inhibition (GI %)
Each item that follows carries a reported inhibition at 10 µM.

>  <compound smiles>
CCn1cc(C(=O)O)c(=O)c2cc(F)c(N3CCN(S(=O)(=O)c4ccc(Cl)cc4)CC3)cc21

>  <inhibition at 10 µM>
> 100%

$$$$
>  <compound smiles>
CCn1cc(C(=O)O)c(=O)c2cc(F)c(N3CCN(S(=O)(=O)c4ccc(Cl)cc4Cl)CC3)cc21

>  <inhibition at 10 µM>
> 100%

$$$$
>  <compound smiles>
CCn1cc(C(=O)O)c(=O)c2cc(F)c(N3CCN(S(=O)(=O)c4cccc5ccccc45)CC3)cc21

>  <inhibition at 10 µM>
> 100%

$$$$
>  <compound smiles>
O=C(O)c1cn(C2CC2)c2cc(N3CCN(S(=O)(=O)c4ccc(Cl)cc4Cl)CC3)c(F)cc2c1=O

>  <inhibition at 10 µM>
< 10%

$$$$
